Where these numbers come from: patent US20030144346A1

compounds and their reported inhibition at 100 µM
assayed.system: UniProtKB P18405
experiment.summary: Cell free assay of 5α-reductase, microsomes of rat 1A cells expressing type 1 isoenzyme (HRED1)
Assay type: biochemical
Design: expressed in transfected cells; host or cells: rat 1A cells infected with pMV7 retrovirus; microsomes
measurement.context: 100 uM; cell free assay; Table 1; read-out: HRED1 % Inhibition @ 100 uM
value.kind: inhibition at 100 µM (%)

> print(dat)
                                   compound  display.unit  reading
1  O=c1c(O)c(-c2ccc(O)c(O)c2)oc2cc(O)cc(O)c12 [Quercitin]             %       96
2     O=c1cc(-c2ccccc2)oc2ccccc12 [Flavone]             %       20
3  O=C1c2c(O)cc(O)cc2O[C@H](c2ccc(O)c(O)c2)[C@H]1O [Taxifolin]             %        5
4  O=c1c(O)c(-c2ccc(O)cc2)oc2cc(O)cc(O)c12 [Kaempferol]             %       22
5  Oc1cc(O)c2c(c1)O[C@H](c1cc(O)c(O)c(O)c1)[C@H](O)C2 [Epigallocatechin]             %       15
6  Oc1cc(O)c2c(c1)O[C@H](c1ccc(O)c(O)c1)[C@H](O)C2 [Epicatechin]             %       14
7  O=c1c(O)c(-c2ccc(O)c(O)c2)oc2cc(O)ccc12 [Fisetin]             %       97

----------
assayed.system: UniProtKB P31213
experiment.summary: Cell free assay of 5α-reductase, microsomes of rat 1A cells expressing type 2 isoenzyme (HRED2)
Type: biochemical
Design: expressed in transfected cells; host or cells: rat 1A cells infected with pMV7 retrovirus; microsomes
measurement.context: cell-free assay
value.kind: inhibitory activity against type 2 isoenzyme, in words

mol	reading
COc1ccc(-c2coc3cc(O)cc(O)c3c2=O)cc1	effective inhibitors
O=c1c(-c2ccc(O)cc2)coc2cc(O)ccc12	effective inhibitors
O=c1c(-c2ccc(O)cc2)coc2cc(O)cc(O)c12	effective inhibitors

----------
assayed.system: type 1 human 5α-reductase (HRED1) (Homo sapiens)
experiment.summary: Cell free assay of 5α-reductase, microsomes of rat 1A cells expressing type 1 isoenzyme (HRED1)
Type: biochemical
Design: expressed in transfected cells; host or cells: rat 1A cells infected with pMV7 retrovirus; microsomes
measurement.context: read-out: HRED1 % Inhibition @ 100 μM
value.kind: inhibition at 100 µM (%)

> print(dat)
                                   compound                            assayed.system  display.unit  reading
1                    CC1=CC(=O)c2ccccc2C1=O  type 1 human 5α-reductase (HRED1) (Homo sapiens)             %       77
2                 Oc1ccc2c(O)c3ccccc3cc2c1O  type 1 human 5α-reductase (HRED1) (Homo sapiens)             %       99
3  CCCCC/C=C\C/C=C\C/C=C\CCCCC(=O)O [Gamma-Linolenic Acid, Gamma-Linolenic Acid C18:3 CIS 6.9,12]  type 1 human 5α-reductase (HRED1) (Homo sapiens)             %       99
4                O=C1c2ccccc2C(=O)c2ccccc21  type 1 human 5α-reductase (HRED1) (Homo sapiens)             %        6
5            O=C1c2ccccc2C(=O)c2c1ccc(O)c2O  type 1 human 5α-reductase (HRED1) (Homo sapiens)             %       95
6  CCCCCCCC/C=C\CCCCCCCC(=O)O [Oleic Acid, Oleic Acid C18:1 CIS 9]  type 1 human 5α-reductase (HRED1) (Homo sapiens)             %       99

----------
compounds and their reported inhibition at 100 µM
assayed.system: type 1 human 5α-reductase (HRED1) (Homo sapiens, UniProt P18405)
Sequence (P18405 whole entry): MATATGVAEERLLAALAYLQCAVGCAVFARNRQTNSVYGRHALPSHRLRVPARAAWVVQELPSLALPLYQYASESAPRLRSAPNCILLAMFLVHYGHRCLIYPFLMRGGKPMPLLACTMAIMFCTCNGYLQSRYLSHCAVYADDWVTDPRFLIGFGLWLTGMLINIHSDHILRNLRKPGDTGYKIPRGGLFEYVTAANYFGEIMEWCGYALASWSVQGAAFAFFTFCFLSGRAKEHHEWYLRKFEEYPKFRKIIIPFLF
experiment.summary: Cell free assay of 5α-reductase, microsomes of rat 1A cells expressing type 1 isoenzyme (HRED1)
Format: biochemical
Design: expressed in transfected cells; host or cells: rat 1A cells infected with pMV7 retrovirus; microsomes
measurement.context: 100 uM; cell free assay; Table 2; read-out: HRED1 % Inhibition @ 100 uM
value.kind: inhibition at 100 µM (%)

> print(dat)
                                   compound  display.unit  reading
1  O=c1oc2c(O)c(O)cc3c(=O)oc4c(O)c(O)cc1c4c23             %        7
2  CCCCCCCCOC(=O)c1cc(O)c(O)c(O)c1 [Octyl Gallate]             %       99
3  Oc1cc2c(cc1O)[C@@H]1c3ccc(O)c(O)c3OC[C@]1(O)C2             %       59
4  CCCOC(=O)c1cc(O)c(O)c(O)c1 [Propylgallate]             %        0
5                             Oc1cccc(O)c1O             %       60

----------
assayed.system: type 1 human 5α-reductase (HRED1) (Homo sapiens, UniProt P18405)
experiment.summary: Cell free assay of 5α-reductase, microsomes of rat 1A cells expressing type 1 isoenzyme (HRED1)
Type: biochemical
Set-up: expressed in transfected cells; host or cells: rat 1A cells infected with pMV7 retrovirus; microsomes
measurement.context: cell free assay; Table 4 quinones; read-out: HRED1 IC50
molecules and their reported IC50
value.kind: IC50 (µM)

molecule	value.kind	display.unit	comparative.sign	reading
CC(C)=CCC1=C(O)C(=O)c2ccccc2C1=O [Lapachol]	IC50	µM	>	100
O=C1c2ccccc2C(=O)c2c1ccc(O)c2O [Alizarin]	IC50	µM	=	3
CC(C)(C)c1cc(O)ccc1O [T-butylhydroxyquinone]	IC50	µM	>	100
COC1=C(OC)C(=O)C(C/C=C(\C)CC/C=C(\C)CC/C=C(\C)CC/C=C(\C)CC/C=C(\C)CC/C=C(\C)CC/C=C(\C)CC/C=C(\C)CC/C=C(\C)CCC=C(C)C)=C(C)C1=O [Coenzyme q]	IC50	µM	=	12
O=C1c2ccc(O)cc2C(=O)c2ccc(O)cc21 [Anthraflavic Acid]	IC50	µM	>	100
O=C1c2ccccc2C(=O)c2c(O)c(O)cc(O)c21 [Purpurin]	IC50	µM	=	2
O=C1c2cccc(O)c2C(=O)c2cccc(O)c21 [Anthrarufin]	IC50	µM	=	40
O=C1c2ccccc2C(=O)c2c(O)ccc(O)c21 [Quinizarin]	IC50	µM	>	100

----------
compounds and their reported pIC50
assayed.system: type 1 human 5α-reductase (HRED1) (Homo sapiens, UniProt P18405)
experiment.summary: Cell free assay of 5α-reductase, microsomes of rat 1A cells expressing type 1 isoenzyme (HRED1);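 also: microsomes from rat 1A cells expressing human type 1 5α-reductase, conversion of radiolabeled testosterone to dihydrotestosterone quantified by thin layer chromatography with radioanalytic scanning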
Type: biochemical
Parameters: expressed in transfected cells; host or cells: rat 1A cells infected with pMV7 retrovirus; microsomes
measurement.context: cell free assay; Table 2 catechols; read-out: HRED1 IC50
pIC50: −log10 of the molar value.
value.kind: pIC50

> print(dat)
                                   compound  comparative.sign  reading
1                  COc1cc2ccc(=O)oc2c(O)c1O                 <     4.00
2  CCCCCCCCOC(=O)c1cc(O)c(O)c(O)c1 [Octyl Gallate]                 =     4.57
3                    O=c1ccc2cc(O)c(O)cc2o1                 <     4.00
4    COc1cc(CCNC(=O)C=Cc2ccc(O)c(O)c2)ccc1O                 <     4.00
5  O=c1oc2c(O)c(O)cc3c(=O)oc4c(O)c(O)cc1c4c23                 <     4.00
6                             Oc1cccc(O)c1O                 =     4.15
7  O=c1c(Br)cc2c(-c3ccccc3S(=O)(=O)O)c3cc(Br)c(O)c(O)c3oc-2c1O                 =     5.15
8       O=C(/C=C/c1ccc(O)c(O)c1)OCCc1ccccc1                 =     4.59
9  COc1cc(C(=O)C=Cc2ccc(N(C)C)cc2)cc(OC)c1OC                 <     4.00

----------
assayed.system: type 2 human 5α-reductase (HRED2) (Homo sapiens, UniProt P31213)
Sequence (P31213 1-254): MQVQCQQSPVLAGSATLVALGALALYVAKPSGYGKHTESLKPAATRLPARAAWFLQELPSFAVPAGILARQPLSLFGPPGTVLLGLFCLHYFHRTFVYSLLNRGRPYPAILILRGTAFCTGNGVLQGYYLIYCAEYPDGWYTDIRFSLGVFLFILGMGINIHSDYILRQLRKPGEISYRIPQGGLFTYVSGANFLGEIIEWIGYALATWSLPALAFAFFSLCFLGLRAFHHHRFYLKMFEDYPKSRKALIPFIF
experiment.summary: Cell free assay of 5α-reductase, microsomes of rat 1A cells expressing type 2 isoenzyme (HRED2);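 also: labeled testosterone and its product dihydrotestosterone measured in microsomal reaction extracts via thin layer chromatography plus radioanalytic scanning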
Format: biochemical
Parameters: expressed in transfected cells; host or cells: rat 1A cells infected with pMV7 retrovirus; microsomes
measurement.context: 100 uM; cell free assay; Table 1; read-out: HRED2 % Inhibition @ 100 uM
value.kind: inhibition at 100 µM (%)

> print(dat)
                                   molecule  reading
1  Oc1cc(O)c2c(c1)O[C@H](c1cc(O)c(O)c(O)c1)[C@H](O)C2 [Epigallocatechin]        3
2               O=c1cc(-c2ccccc2)oc2ccccc12      -52
3  O=C1c2c(O)cc(O)cc2O[C@H](c2ccc(O)c(O)c2)[C@H]1O        5
4  O=c1c(O)c(-c2ccc(O)c(O)c2)oc2cc(O)cc(O)c12       14
5   O=c1c(O)c(-c2ccc(O)c(O)c2)oc2cc(O)ccc12        4
6   O=c1c(O)c(-c2ccc(O)cc2)oc2cc(O)cc(O)c12       62
7  Oc1cc(O)c2c(c1)O[C@H](c1ccc(O)c(O)c1)[C@H](O)C2 [Epicatechin]        4
